Sourced from patent US9796741B2

Biological target: Human factor D (Homo sapiens (Human), UniProt P00746)
Sequence (P00746 26-253): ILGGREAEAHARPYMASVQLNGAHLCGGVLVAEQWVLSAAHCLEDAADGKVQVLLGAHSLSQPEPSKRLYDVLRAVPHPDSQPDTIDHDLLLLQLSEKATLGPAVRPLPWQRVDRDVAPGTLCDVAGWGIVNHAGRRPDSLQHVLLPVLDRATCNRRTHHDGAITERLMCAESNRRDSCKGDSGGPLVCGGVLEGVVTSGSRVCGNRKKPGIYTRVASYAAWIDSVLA
Assay: Human Factor D Assay
Assay type: biochemical
Conditions: human factor D 80 nM, substrate Z-L-Lys-SBzl, DTNB
Method: Human factor D (purified from human serum, Complement Technology, Inc.) at 80 nM final concentration is incubated with test compound at various concentrations for 5 minutes at room temperature in 50 mM Tris, 1M NaCl, pH 7.5. A synthetic substrate Z-L-Lys-SBzl and DTNB (Ellman's reagent) are added to final concentrations of 100 μM each. The increase in color is recorded at OD405 nm in a microplate in kinetic mode over 30 minutes with 30 second time points in a spectrofluorimeter. […]
# IC50 annotations

Fill in the blank: the reported IC50 of `NC(=O)c1nn(CC(=O)N2C[C@H](F)C[C@H]2C(=O)Nc2cncc(Br)n2)c2ccc(-c3ccnnc3)cc12` is ____.
< 1000 nM

Now give it for `CC(=O)c1cn(CC(=O)N2C[C@H](F)C[C@H]2C(=O)Nc2cccc(Br)n2)c2ccc(-c3cnc(C#N)nc3)cc12` too.
< 1000 nM

Now give it for `NC(=O)c1nn(CC(=O)N2[C@@H]3C[C@@H]3C[C@H]2C(=O)Nc2cccc(-c3ccccc3Cl)c2F)c2ccc(-c3ccc(F)nc3)cc12` too.
< 1000 nM

Now give it for `COc1ncc(-c2ccc3c(c2)c(C(C)=O)cn3CC(=O)N2C[C@H](F)C[C@H]2C(=O)NCc2cccc(Cl)c2F)cn1` too.
< 1000 nM

Now give it for `CC(=O)c1cn(CC(=O)N2C[C@H](F)C[C@H]2C(=O)Nc2cccc(-c3ccccc3Cl)c2F)c2ccc(-c3ccc(C)nc3)cc12` too.
< 1000 nM

Now give it for CC(=O)c1cn(CC(=O)N2C[C@@H](F)C[C@@H]2C(=O)NC2CCCN(c3ccccc3Cl)C2=O)c2ccc(-c3ccnnc3)cc12 (stereo partly shown) too.
< 1000 nM

Now give it for `CC(=O)c1cn(CC(=O)N2C[C@H](F)C[C@H]2C(=O)Nc2ccccc2-c2nc3ccccc3s2)c2ccc(-c3ccnnc3)cc12` too.
> 10000 nM

Now give it for `CC(=O)c1cn(CC(=O)N2C[C@H](F)C[C@H]2C(=O)Nc2ccccc2N2CCOC2=O)c2ccc(-c3ccnnc3)cc12` too.
> 10000 nM

Now give it for CC1Oc2cccc(NC(=O)[C@@H]3C[C@@H](F)CN3C(=O)Cn3nc(C(N)=O)c4cc(-c5ccnnc5)ccc43)c2NC1=O (stereo partly shown) too.
> 10000 nM

Now give it for `NC(=O)c1nn(CC(=O)N2C[C@H](F)C[C@H]2C(=O)Nc2cc(O)ccn2)c2ccc(-c3ccnnc3)cc12` too.
> 10000 nM
